# Method Description: In vivo pharmacokinetics, plasma and brain, IP 10 mg/kg
# Design: species or system C57BL/6 mice
# Condition: male, C57BL/6; Brain IP 10 mg/kg fed, mouse, mean; read-out: Cmax
# Protocol: In vivo analysis of 1180-420 and 1180-447 for pharmacokinetic properties: In vivo analysis of 1180-420 and 1180-447 for pharmacokinetic properties was performed by Pharmaron (Irvine, Calif.). […] The mouse is placed head down at a 45-degree angle to facilitate blood removal. After perfusion, the brain ventricle is opened, and the brain is removed. […] The mixtures were then vortexed for 30 seconds and subsequently centrifuged (˜4000 rpm) for 15 minutes.
Listing of recorded Cmax by entry.
Provide only the numeric value, understood in µM.

- Compound: "COc1ccc(OCC2c3cccn3CCN2C(=O)c2cccc(Cl)c2)cc1 (centres unmarked)"
  Metric: "Cmax"
  Value Units: "µM"
  Measured Result: 3.5

Kindly review the next compound as well.
Cmax in this record for COc1ccc(OCC2c3cccn3CC(=O)N2Cc2cccc(C(F)(F)F)c2)cc1 (racemic) : 3.9
